molecular target: T1, Proleukin® (aldesleukin) (human, UniProt P60568 21-153, limits assumed); assay: ELISA, coated Proleukin, HEK293F supernatant 1:2
T1 construct: Variant of human wt IL-2 with C145S (C125S on mature IL-2); also called IL-2 (Proleukin®); human IL-2 (Proleukin)
T1 sequence (P60568 other isoform, or with tags, fused parts or gaps limits assumed): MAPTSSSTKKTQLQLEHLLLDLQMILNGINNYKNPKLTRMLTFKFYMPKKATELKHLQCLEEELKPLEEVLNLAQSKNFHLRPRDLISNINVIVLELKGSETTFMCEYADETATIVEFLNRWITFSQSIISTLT
readout_kind: ELISA value (Normal ELISA) (luminescence signal)
Reply numerically in luminescence signal, unit not repeated.

• Antibody No: 35 (antibody, human IgG1, kappa, N297A, V domains shown, VK M33L + A50S; HEK293F supernatant) VH: EVQLVQSGAEVKKPGESLKISCKGSGYAFSNYLIEWVRQMPGKGLEWMGVINPGSGGTYYNEKFKGQVTISADKSISTAYLQWSSLKASDTAMYYCARWRGEGYYAYYDVWGQGTTVTVSS VL: AIRLTQSPSSFSASTGDRVTITCKASQSVDYQGDSYLNWYQQKPGKAPKLLIYSASNLESGVPSRFSGSGSGTDFTLTISSLQSEDFATYYCQQSNEDPYTFGGGTKVEIKR = 4910

Next up:
GET /value?item= Antibody No: 23 (antibody, human IgG1, kappa, N297A, V domains shown, VK A50S; HEK293F supernatant) VH: EVQLVQSGAEVKKPGESLKISCKGSGYAFSNYLIEWVRQMPGKGLEWMGVINPGSGGTNYNEKFKGQVTISADKSISTAYLQWSSLKASDTAMYYCARWRGEGYYAYYDVWGQGTTVTVSS VL: AIRLTQSPSSFSASTGDRVTITCKASQSVDYQGDSYMNWYQQKPGKAPKLLIYSASNLESGVPSRFSGSGSGTDFTLTISSLQSEDFATYYCQQSNEDPYTFGGGTKVEIKR &field=ELISA value (Normal ELISA) returns 6170
